From: PubChem BioAssay (NCI)

# Test system: MOLT-4 leukemia
# assay: NCI-60 one-dose screen, 48 h
# experimental-context: 10 µM unless noted
The panel holds about 83,000 compounds, 20% with a hit somewhere; the sample as a whole holds those more often. Activity calls are given as the source filed them. The calls were made as follows: active = growth percent below 10; inactive = the rest.
Possible outcomes: active, inactive

molecule	discrete-label
c1ccc(-c2n(Cc3ccc4ccccc4n3)c3ccccc3[n+]2Cc2ccc3ccccc3n2)cc1	active
Cc1nn(-c2ccccc2)c2nc3nc4c(c(N)c3c(-c3ccc(Cl)cc3)c12)CCCC4	inactive
O=c1onc(-c2ccccc2)c2ccccc12	inactive
COC(=O)[C@@H]1CCCN1C(=O)[C@@H]1CCCN1C(=O)[C@@H](Cc1c[nH]c2ccccc12)NC(=S)Nc1cc(C(F)(F)F)cc(C(F)(F)F)c1	inactive
COc1cc2nc(SCc3cc(OC)c(OC)c(OC)c3)n(-c3ccccc3OC)c(=O)c2cc1OC	inactive
CN1CCN(C(=O)OCCOCCOC(=O)N2CCN(C)CC2)CC1	inactive
Cc1c(NCC(=O)Nc2nc3ccccc3[nH]2)c(=O)n(-c2ccccc2)n1C	inactive
CN(C)c1ccc(/C=C(\C#N)c2cc3ccccc3n2C)cc1	inactive
CN1CCN(c2nc(-c3ccncc3)nc3sc4c(c23)CCCCCC4)CC1	inactive
COc1cccc(OC(=O)c2ccccc2)c1OC(=O)c1ccccc1	inactive
Cc1cccc2c(=O)c3c(sc12)c(NCCNCCO)nc1ccccc13	active
O=[N+]([O-])c1ccc(C=C2C(Cl)=C(Cl)C(Cl)=C2Cl)cc1	active
NC(=O)c1cc(Cl)ccc1NC(=O)COc1ccccc1	inactive
CCOC(=O)c1c(Cl)c2c(n1Cc1cc(OC)cc(OC)c1)-c1oncc1CCC2	inactive
O=C1CCC(N2Cc3c(C#CCCCNC(=O)c4cc5c(o4)C(=O)c4ccccc4C5=O)cccc3C2=O)C(=O)N1 (stereo not given)	active
COc1ccc(-n2ncc3c2ccc2cc(S(=O)(=O)c4ccccc4)c(=O)n(C)c23)cc1	inactive
COC(=O)C1C2CC3c4[nH]c5cc(OC)ccc5c4CCN3CC2CC(OC2CCCCO2)C1OC (stereo not given)	inactive
COc1ccc(/C=C(\C#N)c2ccc(OC)cc2)cc1	inactive
CSc1ccc(OC(C)=O)cc1C	inactive
COc1cc(C(F)(F)F)ccc1-c1cc(-c2ccc(F)cc2)n[nH]1	inactive
Cc1oc2c(c1C(=O)N1CC[C@@H](N)C1)C(=O)c1c(c(O)c3ccccc3c1O)C2=O	active
CCN(c1ccc(C(=O)N2CCN(c3ccccc3)CC2)cc1)S(C)(=O)=O	inactive
CCOC(=O)c1c(-c2cc(OC)c(OC)c(OC)c2)csc1N	inactive
O=C1/C(=C/c2ccc(Oc3ccccc3)cc2)N=C(c2ccccc2)N1CCc1cccs1	inactive
COc1cccc(C2CC(=O)Nc3cc4c(cc32)OCO4)c1OC (stereo not given)	inactive
Cc1ccc(S(=O)(=O)N2CCc3ccc(O)c4c3C2Cc2ccc3c(c2-4)OCO3)cc1 (stereo not given)	inactive
O=S(=O)(Nc1ncccn1)c1ccc(Nc2ccc3nnc(-c4ccncc4)n3n2)cc1	inactive
C[C@H]1C(=O)C23CCC1C[C@@]21O[C@@H]2C(C)(C)C=CC(=O)C23COC1=O	inactive
NC(=S)N/N=C1\c2ccccc2-c2c(F)c(F)c(F)c(F)c21	active
Cc1ccc(N=c2nc3sc4c(C)ccc(C)c4n3c(N)c2C#N)cc1	inactive
N#CCCN1CCN(CCC#N)C1=S	inactive
COc1cc(/C=C/C(=O)C(=Cc2ccc(F)c(F)c2)C(=O)/C=C/c2ccc(O)c(OC)c2)ccc1O	inactive
COc1cccc(C2C3=C(COC3=O)N(CCO)c3cc4c(cc32)CCC4)c1 (stereo not given)	inactive
O=[N+]([O-])c1cc2c(cc1Br)C1C(C3C2C(Cl)(Cl)C(Cl)=C(Cl)C3(Cl)Cl)C(Cl)(Cl)C(Cl)=C(Cl)C1(Cl)Cl (stereo not given)	inactive
Cc1cc(NS(=O)(=O)c2ccc(NC(=O)COc3ccc(-c4cc5ccccc5[nH]4)cc3)cc2)no1	active
ONc1nc(NO)c2[nH]cnc2n1	active
COc1cc(/C=N/NC(=O)c2cnn3c2NC(c2ccccc2)C3)ccc1OC1CCCC1 (stereo not given)	inactive
CC(C)(C)[Si](C)(C)OC1[C@@H](COC(N)=O)O[C@@H](n2cnc3c(N)ncnc32)[C@H]1O[Si](C)(C)C(C)(C)C (stereo not given in full)	active
CCOC(=O)c1sc(NC(=O)CN2CCC(Cc3ccccc3)CC2)nc1C	inactive
Cc1ccc(S(=O)(=O)N2C/C(=C\c3cc(F)cc(F)c3)C(=O)/C(=C/c3cc(F)cc(F)c3)C2)cc1	active

====

# Test system: SN12C renal
# assay: NCI-60 one-dose screen, 48 h (100 = growth as untreated, 0 = no growth, -100 = all killed)
# experimental-context: 10 µM unless noted
Compounds without any hit were thinned out: in the full panel of roughly 83,000, 20% have a hit.

molecule	tested-on	growth, %
COc1ccc(NC(=O)c2ccc3c(c2)nc(-c2ccc(Cl)cc2)n3-c2cc(C(C)(C)C)[nH]n2)cc1	SN12C renal	86
COc1ccc(-n2c(SCc3cc(OC)c(OC)c(OC)c3)nc3ccc(C)cc3c2=O)c(OC)c1	SN12C renal	45.2
C=C(C)CCCC(C)CC#N (configuration not stated)	SN12C renal	103
Cc1ccc(C(=O)Nc2ccccc2N)cc1	SN12C renal	64
O=C1CCC(N2C(=O)c3cccc(NCCOCCOCCNC(=O)c4cc5c(o4)C(=O)c4ccccc4C5=O)c3C2=O)C(=O)N1 (configuration not stated)	SN12C renal	-90.6
O=C1C(Br)=C(c2ccccc2)C(=O)C(Br)=C1c1ccccc1	SN12C renal	95.2
CCSc1nnc2c3cc(Br)ccc3n(C)c2n1	SN12C renal	102
COc1nc2c(cc1S(=O)(=O)c1ccccc1)CCc1c-2cnn1-c1ccccc1	SN12C renal	77.9
COc1c(O)c2c3c(c1OC)-c1ccccc1CC3N(S(=O)(=O)c1ccc(C)cc1)CC2 (configuration not stated)	SN12C renal	50
Cc1cccc2c(=O)c3c(sc12)c(NCCCN)nc1ccccc13	SN12C renal	22.1
COc1cccc(C2C3=C(COC3=O)N(CCO)c3cc4c(cc32)OCO4)c1 (configuration not stated)	SN12C renal	46.7
CCOc1ccc(/C=N\N2CCCCCC2)cc1OCC	SN12C renal	82.7
CCC(=O)Nc1nnc(Cc2ccc(OC)c(OC)c2)s1	SN12C renal	2.77
Cc1ccc(NS(=O)(=O)c2ccc(-c3cnc(C4CC4)o3)cc2)cc1	SN12C renal	42.2
O=C(NCc1ccc(F)cc1)C1CN(c2ccc(Cl)cc2)N(c2ccc(Cl)cc2)C1=O (configuration not stated)	SN12C renal	83
O=C(c1ccc2ncc(-c3nc(NC4CC4)ncc3F)n2c1)N1CCOCC1	SN12C renal	30.1
Cc1ccc(S(=O)(=O)N2CCc3ccc(O)c4c3C2CCc2ccccc2-4)cc1 (configuration not stated)	SN12C renal	100
O=C1c2ccccc2-c2cn(Cc3ccccc3)c3cccc(c23)C1c1cccnc1 (configuration not stated)	SN12C renal	59.5
O=C(Nc1nc2ccccc2[nH]1)C(=O)Nc1nc2ccccc2[nH]1	SN12C renal	94.5
O=[N+]([O-])c1cc2c(cc1Br)-c1ccccc1C2	SN12C renal	85.1
NC(=O)c1cc(I)ccc1NC(=O)COc1ccccc1	SN12C renal	37.4
COc1cc(C(=O)/C=C/c2c(-c3cccs3)nc3sccn23)cc(OC)c1OC	SN12C renal	4.03

====

Below, each entry is listed alongside its reported growth.
# Test system: SN12C renal
# assay: NCI-60 one-dose screen, 48 h (100 = growth as untreated, 0 = no growth, -100 = all killed)
# experimental-context: 10 µM unless noted
The panel holds about 83,000 compounds, 20% with a hit somewhere; the sample as a whole holds those more often.

molecule	growth, %
O=[N+]([O-])c1cc2c(cc1Br)C1C(C3C2C(Cl)(Cl)C(Cl)=C(Cl)C3(Cl)Cl)C(Cl)(Cl)C(Cl)=C(Cl)C1(Cl)Cl (stereo not given)	98.7
COc1cc2nc(SCc3cc(OC)c(OC)c(OC)c3)n(-c3ccccc3OC)c(=O)c2cc1OC	98
Cc1nn2c(-c3nc4ccc(Cl)cc4[nH]3)c(-c3ccc(F)cc3)nc2s1	106
Nc1nc2c(s1)CCc1c-2c(Br)n(Cc2ccccc2)c1Br	87.7
Clc1cccc(Cl)c1Nc1ccc2nnc(-c3ccncc3)n2n1	95.9

====

# Tested on: COLO 205 colon
# assay: NCI-60 one-dose screen, 48 h
# experimental-context: 10 µM unless noted
This is part of a sample that, as a whole, favours compounds with a hit. Of some 83,000 tested, about 20% had one in any assay. Calls of active or inactive are those of the source. Rule for the calls: active = growth percent below 10; inactive = the rest.
Outcome codes: active, inactive

molecule	tested-on	discrete-label
CCCCC(CCCC)(S(=O)(=O)CC)S(=O)(=O)CC	COLO 205 colon	inactive
CCN(CC)CCCNc1ccc(C)c2sc3ccccc3c(=O)c12	COLO 205 colon	active
CC(C)OC1=C(Cl)C(=O)c2ccccc2C1=O	COLO 205 colon	inactive
CC(C)(C)[Si](C)(C)OC1[C@@H](COC(=O)NC(=O)CCl)O[C@@H](n2cnc3c(N)ncnc32)[C@H]1O[Si](C)(C)C(C)(C)C (some centres not stated)	COLO 205 colon	inactive
COc1ncnc2c1ncn2C/C(Br)=C(\Br)CCl	COLO 205 colon	active
Cc1ccc2nc(NC(=O)CSC(=S)N3CCN(Cc4ccccc4)CC3)sc2c1	COLO 205 colon	active
CCC(=O)Nc1nnc(Cc2ccc(OC)c(OC)c2)s1	COLO 205 colon	inactive
CN(C)C(=S)SCN1C(=O)c2ccc([N+](=O)[O-])cc2S1(=O)=O	COLO 205 colon	inactive
Clc1cccc(Cl)c1Nc1ccc2nnc(-c3ccncc3)n2n1	COLO 205 colon	inactive
Cc1cc(=O)[nH]n1-c1cc(Cl)ccc1N	COLO 205 colon	inactive
O=[N+]([O-])c1cc2c(cc1Br)-c1ccccc1C2	COLO 205 colon	inactive
COc1ccc(/C=C(\C#N)c2cc3ccccc3n2C)cc1	COLO 205 colon	active
CCOC(=O)n1cc(C2=C(c3cn(C)c4ccccc34)COC2=O)c2ccccc21	COLO 205 colon	active
COc1cccc(-c2ccc3c(c2)C2CCN(Cc4ccccc4)C3C2)c1 (configuration not stated)	COLO 205 colon	inactive
N#CC1=C(N)Oc2cc(N)ccc2C1c1ccc(F)cc1 (configuration not stated)	COLO 205 colon	inactive
O=C(c1ccccc1)C(Br)C(Br)c1cccc([N+](=O)[O-])c1 (configuration not stated)	COLO 205 colon	active
COc1ccc(-c2nc(Nc3ccc(F)cc3)nc(Nc3ccc4c(c3)nc(C)n4Cc3ccccc3)n2)cc1	COLO 205 colon	inactive
Clc1ccc(C2=Nc3cccc4cccc(c34)N2)cc1Cl	COLO 205 colon	inactive
Oc1cccc(Nc2nc(-c3ccccn3)cs2)c1	COLO 205 colon	inactive
COc1ccc(/C=C2\CN(Cc3cn(CCCNc4ccnc5cc(Cl)ccc45)nn3)C/C(=C\c3ccc(OC)cc3)C2=O)cc1	COLO 205 colon	inactive
NC(=O)c1cc(I)ccc1NC(=O)COc1ccc(Cl)cc1Cl	COLO 205 colon	inactive
CC1(C)N=C(N)N=C(N)N1c1cccc(/C=C/C=C/c2cccc([N+](=O)[O-])c2)c1	COLO 205 colon	inactive
CCOC(=O)C1=C(C)N2C(=NC3=C(CCCC/C3=C\c3ccccc3)C2c2ccccc2)S1 (configuration not stated)	COLO 205 colon	inactive
O=C1/C(=C/c2ccc(Cl)cc2)N=C(c2ccccc2)N1CCc1cccs1	COLO 205 colon	inactive
N#C/C(=C\c1ccc[nH]1)c1cc2ccccc2[nH]1	COLO 205 colon	inactive
COc1ccc(-c2nc3sc(C)cn3c2/C=C/C(=O)c2cc(OC)c(OC)c(OC)c2)cc1	COLO 205 colon	inactive
Cn1c2ccccc2c2nn(C(=O)c3ccccc3)c(=O)nc21	COLO 205 colon	inactive
CCCOC(=O)c1ccc2c(c1)[N+](=O)C(C(=O)c1ccccc1)=C(C(F)(F)F)[N+]2=O	COLO 205 colon	active
CC1SC(c2ccc(Cl)cc2)N(CCc2cccs2)C1=O (configuration not stated)	COLO 205 colon	active
CCOC(=O)c1cc2c(n(C)c1=O)-c1cnn(-c3ccc(OC)cc3)c1CC2	COLO 205 colon	inactive
O=[N+]([O-])c1ccc(O)c2ncccc12	COLO 205 colon	inactive
FCOC(C(F)(F)F)C(F)(F)F	COLO 205 colon	inactive
O=c1c2c(=NCCN3CCCC3)cc3c(=O)n(CCCN4CCOCC4)c(=O)c4ccc(c(O)n1CCCN1CCOCC1)c2c4-3	COLO 205 colon	active
COc1cc2cc(Oc3ccc(NC(=O)Nc4ccc(Cl)c(C(F)(F)F)c4)cc3)c(C)nc2cc1OCCN1CCCCC1	COLO 205 colon	active
NC1=NC(c2ccccc2OS(=O)(=O)c2ccc(Br)cc2)n2c(nc3ccccc32)N1 (configuration not stated)	COLO 205 colon	inactive
NC(=O)c1cc(Cl)ccc1NC(=O)COc1ccccc1	COLO 205 colon	inactive
Cc1c(C(=O)Nc2nc(-c3ccccc3)cs2)nnn1-c1cccc2ccccc12	COLO 205 colon	inactive
O=C1c2[nH]cc(CN[C@@H]3CCCN3)c2C(=O)c2c1c(O)c1ccccc1c2O	COLO 205 colon	active
COc1ccc(-n2ncc3c2ccc2cc(S(=O)(=O)c4ccccc4)c(=O)n(C)c23)cc1	COLO 205 colon	inactive
COC(=O)c1ccc(C(=O)Nc2ccccc2N)cc1	COLO 205 colon	inactive
Nc1ccccc1-c1n[nH]c(=O)[nH]c1=O	COLO 205 colon	inactive
CC[Si](CC)(CC)OC1[C@@H](O[Si](CC)(CC)CC)[C@@H](CNC(=O)NC)O[C@H]1n1cnc2c(NC(=O)Nc3ccccc3)ncnc21 (some centres not stated)	COLO 205 colon	inactive
